- Tested System: T1, CB1 surface expression (CB1 TRex-CHO / TRex-293 cells) (Homo sapiens, UniProt P21554)
- T1 construct: pcDNA4/TO native full length human CB1 receptor construct was transfected into tetracycline inducible system Trex-CHO and Trex-293 cells; expressed in transfected cells; tetracycline induced
- T1 sequence (P21554 whole entry): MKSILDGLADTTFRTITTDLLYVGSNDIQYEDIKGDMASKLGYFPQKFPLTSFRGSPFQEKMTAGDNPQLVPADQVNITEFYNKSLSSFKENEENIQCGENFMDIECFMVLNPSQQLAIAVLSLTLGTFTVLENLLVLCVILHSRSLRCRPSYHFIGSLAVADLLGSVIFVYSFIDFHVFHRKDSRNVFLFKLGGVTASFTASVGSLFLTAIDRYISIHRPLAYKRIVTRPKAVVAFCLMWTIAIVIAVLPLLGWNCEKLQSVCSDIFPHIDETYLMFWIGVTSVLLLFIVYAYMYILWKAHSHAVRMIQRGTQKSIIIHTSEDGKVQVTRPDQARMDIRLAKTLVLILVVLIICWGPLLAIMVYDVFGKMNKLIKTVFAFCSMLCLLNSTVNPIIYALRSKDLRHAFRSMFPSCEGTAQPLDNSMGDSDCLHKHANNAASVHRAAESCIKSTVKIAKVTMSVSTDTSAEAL
- Type: cell-based
- Test Conditions: 1 hour
Readout: CB1 receptor internalization induced by the substance alone

Molecule | Meas Value
PA2LR3-P4G10: phage-derived CB1 binding IgG clone (antibody, V domains shown, PA2LR3-P4G10 Heavy Chain Variable region; PA2LR3-P4G10 Light Chain Variable region) VH: EVQLQQFGAELVRPGSSVKISCKASGYAFSYYWMNWVKQRPGQGLEWIGQIYPGDGDTNYNGKFKGKATLTADKSSSTAYMQLSSLTSEDSAVYFCARSHGNYFAYWGQGTLVTVSA VL: DIVLTQSPAIMSASLGERVTMTCTASSSVSSSYLHWYQQKPGSSPKLWIYSTSNLASGVPARFSGSGSGTSYSLTISSMEAEDAATYYCQQWSSNPLTFGAGTKLELK | do not induce
PA2LR3-P4C6: phage-derived CB1 binding IgG clone (antibody, V domains shown, PA2LR3-P4C6 Heavy Chain Variable region; PA2LR3-P4C6 Light Chain Variable region) VH: EVQLQQSGAELVRPGSSVKISCKASGYAFSYYWMNWVKQRPGQGLEWIGQIYPGDGDTNYNGKFKGKATLTADKSSSTAYMQLSSLTSEDSAVYFCARSHGNYFPYWGQGTLVTVSA VL: DIVITQSPAIVSASLGERVTMTCTASSSVSSSYLHWYQQKPGSSPKLWIYSTSNLASGVPARFSGSGSGTSYSLTISSMEAEDAATYYCQQWSSYPLTFGAGTKLEIK | do not induce
